# System: ATP;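 also: ATP exposure 15 min at 22 °C before imaging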
# experiment: switch fluorescence ratio, 500 uM ATP over buffer (Cy3 cluster intensity, sum of 5 cycles each) (fold (ratio)); higher = stronger signal-on switching upon ATP binding; sequences stand for … in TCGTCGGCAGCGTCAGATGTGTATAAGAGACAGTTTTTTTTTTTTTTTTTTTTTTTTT…TC
# assay_conditions: aptamer strand: ATP DNA aptamer (quencher-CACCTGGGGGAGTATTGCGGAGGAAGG + anchor), 100 nM annealed; ATP concentration: 500 uM

[
  {
    "record_sequence": "ATGGTAGGTA",
    "switch fluorescence ratio": 1
  },
  {
    "record_sequence": "CGGGACCGGA",
    "switch fluorescence ratio": 1.02
  },
  {
    "record_sequence": "CATTCGAATA",
    "switch fluorescence ratio": 1.08
  },
  {
    "record_sequence": "ATTCTACCGC",
    "switch fluorescence ratio": 1.49
  },
  {
    "record_sequence": "GCCGTTGGGG",
    "switch fluorescence ratio": 0.99
  },
  {
    "record_sequence": "TATACTATTG",
    "switch fluorescence ratio": 1.01
  },
  {
    "record_sequence": "TCTGTTGGGC",
    "switch fluorescence ratio": 0.995
  },
  {
    "record_sequence": "TCGAAGGGCT",
    "switch fluorescence ratio": 1.02
  },
  {
    "record_sequence": "ACACGATGGG",
    "switch fluorescence ratio": 1
  },
  {
    "record_sequence": "TGGATTTGCA",
    "switch fluorescence ratio": 1.03
  },
  {
    "record_sequence": "GGGGCGGGTA",
    "switch fluorescence ratio": 1
  },
  {
    "record_sequence": "GTAACGGGGA",
    "switch fluorescence ratio": 0.995
  },
  {
    "record_sequence": "TGCTTGGGGA",
    "switch fluorescence ratio": 0.983
  },
  {
    "record_sequence": "ACGGGACGCA",
    "switch fluorescence ratio": 1.09
  },
  {
    "record_sequence": "TAGGAAATCT",
    "switch fluorescence ratio": 1.03
  },
  {
    "record_sequence": "TCTTGTAGCG",
    "switch fluorescence ratio": 0.986
  },
  {
    "record_sequence": "TTATAAGTGT",
    "switch fluorescence ratio": 0.963
  },
  {
    "record_sequence": "AAAGGCTGAA",
    "switch fluorescence ratio": 1.03
  },
  {
    "record_sequence": "AATATGGAGC",
    "switch fluorescence ratio": 1.08
  },
  {
    "record_sequence": "GGTAGGGGTG",
    "switch fluorescence ratio": 1.07
  }
]

====

Attribute: switch fluorescence ratio
# Tested on: ATP;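 also: ATP exposure 15 min at 22 °C before imaging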
# experiment: switch fluorescence ratio, 500 uM ATP over buffer (Cy3 cluster intensity, sum of 5 cycles each) (fold (ratio)); higher = stronger signal-on switching upon ATP binding; sequences stand for … in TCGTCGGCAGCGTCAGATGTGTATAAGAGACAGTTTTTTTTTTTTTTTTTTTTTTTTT…TC
# assay_conditions: aptamer strand: ATP DNA aptamer (quencher-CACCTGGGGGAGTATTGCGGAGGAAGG + anchor), 100 nM annealed; ATP concentration: 500 uM

[
  {
    "record_sequence": "GCATAAATAG",
    "switch fluorescence ratio": 1.02
  },
  {
    "record_sequence": "AGCGTTCTGG",
    "switch fluorescence ratio": 1.04
  },
  {
    "record_sequence": "TCGTGCGGTT",
    "switch fluorescence ratio": 1.01
  },
  {
    "record_sequence": "TGTTTTTGGC",
    "switch fluorescence ratio": 1
  },
  {
    "record_sequence": "GTGTGTGGAC",
    "switch fluorescence ratio": 1.01
  },
  {
    "record_sequence": "CGGCAATCCT",
    "switch fluorescence ratio": 3.99
  },
  {
    "record_sequence": "CATGAAAAAT",
    "switch fluorescence ratio": 1
  },
  {
    "record_sequence": "TCCGAGTGAG",
    "switch fluorescence ratio": 1.13
  },
  {
    "record_sequence": "ATTCCTAGAT",
    "switch fluorescence ratio": 1
  },
  {
    "record_sequence": "AAGATAGGTT",
    "switch fluorescence ratio": 1.02
  },
  {
    "record_sequence": "GCAAATATTG",
    "switch fluorescence ratio": 1.01
  },
  {
    "record_sequence": "TGGGTTACGA",
    "switch fluorescence ratio": 1.04
  },
  {
    "record_sequence": "AGTGCGTCTC",
    "switch fluorescence ratio": 0.975
  },
  {
    "record_sequence": "CCAATGTACT",
    "switch fluorescence ratio": 1.36
  },
  {
    "record_sequence": "AGGGCTCGGG",
    "switch fluorescence ratio": 1.01
  },
  {
    "record_sequence": "TACCTGGGGG",
    "switch fluorescence ratio": 1.02
  },
  {
    "record_sequence": "GGCGAGAACG",
    "switch fluorescence ratio": 0.986
  },
  {
    "record_sequence": "TGGAGGGCTA",
    "switch fluorescence ratio": 0.97
  },
  {
    "record_sequence": "GCTTACGTCA",
    "switch fluorescence ratio": 1.05
  },
  {
    "record_sequence": "CGTAGTAGAC",
    "switch fluorescence ratio": 2.61
  }
]

====

# System: ATP;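 also: ATP exposure 15 min at 22 °C before imaging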
# experiment: switch fluorescence ratio, 500 uM ATP over buffer (Cy3 cluster intensity, sum of 5 cycles each) (fold (ratio)); higher = stronger signal-on switching upon ATP binding; sequences stand for … in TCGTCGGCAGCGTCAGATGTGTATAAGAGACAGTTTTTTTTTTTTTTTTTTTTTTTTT…TC
# assay_conditions: aptamer strand: ATP DNA aptamer (quencher-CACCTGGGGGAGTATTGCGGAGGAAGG + anchor), 100 nM annealed; ATP concentration: 500 uM
Attribute: switch fluorescence ratio

[
  {
    "record_sequence": "GAGCCGGGCC",
    "switch fluorescence ratio": 0.99
  },
  {
    "record_sequence": "TTGTTTAAGA",
    "switch fluorescence ratio": 1.03
  },
  {
    "record_sequence": "GGTGGAAAAG",
    "switch fluorescence ratio": 1
  },
  {
    "record_sequence": "GGTTGCAGTC",
    "switch fluorescence ratio": 0.946
  },
  {
    "record_sequence": "CCTGTTCGGC",
    "switch fluorescence ratio": 1.02
  },
  {
    "record_sequence": "GGCATTAATT",
    "switch fluorescence ratio": 1.01
  },
  {
    "record_sequence": "ATTGGGGTGC",
    "switch fluorescence ratio": 0.992
  },
  {
    "record_sequence": "CCACATTGGA",
    "switch fluorescence ratio": 1
  },
  {
    "record_sequence": "AAAGGGAAGG",
    "switch fluorescence ratio": 1.01
  },
  {
    "record_sequence": "TGGGGTAAAT",
    "switch fluorescence ratio": 1.01
  }
]

====

# System: ATP;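 also: ATP exposure 15 min at 22 °C before imaging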
# experiment: switch fluorescence ratio, 500 uM ATP over buffer (Cy3 cluster intensity, sum of 5 cycles each) (fold (ratio)); higher = stronger signal-on switching upon ATP binding; sequences stand for … in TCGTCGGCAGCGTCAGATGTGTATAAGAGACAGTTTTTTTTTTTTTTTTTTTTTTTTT…TC
# assay_conditions: aptamer strand: ATP DNA aptamer (quencher-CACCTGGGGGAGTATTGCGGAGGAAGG + anchor), 100 nM annealed; ATP concentration: 500 uM
Attribute: switch fluorescence ratio
test_readout: switch fluorescence ratio

[
  {
    "record_sequence": "GGGATCGTTG",
    "endpoint_value": 0.965
  },
  {
    "record_sequence": "ATTGTATAAA",
    "endpoint_value": 1.04
  },
  {
    "record_sequence": "TCAAATTATG",
    "endpoint_value": 1.01
  },
  {
    "record_sequence": "TTCGTGTTTT",
    "endpoint_value": 1.04
  },
  {
    "record_sequence": "GGTCAAGTTG",
    "endpoint_value": 0.961
  },
  {
    "record_sequence": "TGGCCACTTA",
    "endpoint_value": 1.07
  },
  {
    "record_sequence": "GGGAAAATGG",
    "endpoint_value": 1.01
  },
  {
    "record_sequence": "AATGGAGTTT",
    "endpoint_value": 1
  },
  {
    "record_sequence": "ATGATGGG",
    "endpoint_value": 1.01
  },
  {
    "record_sequence": "GGGATGAATA",
    "endpoint_value": 0.982
  },
  {
    "record_sequence": "CGGGGTGTT",
    "endpoint_value": 0.994
  }
]
